target: human ether-à-go-go-related gene (hERG) potassium channel (human, UniProt Q12809); assay: primary screen, population patch clamp on CHO cells stably expressing hERG; higher = less effect of the substance
Sequence (Q12809 whole entry, looked up): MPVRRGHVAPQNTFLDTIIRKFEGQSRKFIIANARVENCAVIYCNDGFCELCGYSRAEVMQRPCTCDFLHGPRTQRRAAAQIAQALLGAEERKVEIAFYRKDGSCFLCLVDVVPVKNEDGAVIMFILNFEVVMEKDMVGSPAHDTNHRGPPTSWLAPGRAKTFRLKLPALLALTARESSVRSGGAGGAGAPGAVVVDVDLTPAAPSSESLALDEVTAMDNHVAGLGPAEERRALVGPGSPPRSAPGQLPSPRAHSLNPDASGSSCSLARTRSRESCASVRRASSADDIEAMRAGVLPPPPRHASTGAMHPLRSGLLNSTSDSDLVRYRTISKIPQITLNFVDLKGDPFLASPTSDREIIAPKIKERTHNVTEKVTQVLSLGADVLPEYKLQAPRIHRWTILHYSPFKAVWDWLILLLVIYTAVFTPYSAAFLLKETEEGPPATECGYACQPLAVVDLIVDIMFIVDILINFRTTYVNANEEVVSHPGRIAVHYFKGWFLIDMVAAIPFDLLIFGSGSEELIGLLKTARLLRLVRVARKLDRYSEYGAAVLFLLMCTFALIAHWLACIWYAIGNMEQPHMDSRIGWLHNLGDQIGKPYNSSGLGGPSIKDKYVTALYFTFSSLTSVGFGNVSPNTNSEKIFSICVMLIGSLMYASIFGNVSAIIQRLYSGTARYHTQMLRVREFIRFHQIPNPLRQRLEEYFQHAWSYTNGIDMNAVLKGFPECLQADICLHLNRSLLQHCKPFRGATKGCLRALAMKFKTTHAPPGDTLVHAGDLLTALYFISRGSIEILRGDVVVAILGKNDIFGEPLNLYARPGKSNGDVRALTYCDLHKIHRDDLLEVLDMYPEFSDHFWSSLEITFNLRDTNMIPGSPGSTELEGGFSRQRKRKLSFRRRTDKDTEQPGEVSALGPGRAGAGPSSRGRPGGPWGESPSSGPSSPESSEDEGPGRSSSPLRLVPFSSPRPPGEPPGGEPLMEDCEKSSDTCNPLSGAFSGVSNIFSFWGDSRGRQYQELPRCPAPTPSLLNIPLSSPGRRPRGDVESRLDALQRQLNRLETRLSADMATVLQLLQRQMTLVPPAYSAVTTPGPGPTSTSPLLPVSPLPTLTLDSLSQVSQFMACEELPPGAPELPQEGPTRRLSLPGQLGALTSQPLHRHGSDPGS
The campaign covered roughly 310,000 compounds. About 14,000 (4.5%) showed an effect of 50% or more. Effects have a minus sign here. Shown is part of a subset that was picked to be rich in strong results.
Field: hERG current change (%, negative = inhibition) at 10uM. Provide a value for each of the compounds that follow.
Numbers only; they are read as %.

# get_value(readout= hERG current change (%, negative = inhibition) at 10uM, system= human ether-à-go-go-related gene (hERG) potassium channel (human, UniProt Q12809)) for "COc1ccc(-c2nc3c(=O)n(C)c(=O)[nH]c3n2CCc2ccccc2)cc1"
22.1

For the record "Cc1cccc(-n2ccnc2SCC(=O)Nc2ccc3c(c2)OCCO3)c1" , what value of hERG current change (%, negative = inhibition) at 10uM is listed for human ether-à-go-go-related gene (hERG) potassium channel (human, UniProt Q12809)?
-14

// map "O=C(NC(=S)Nc1ncccn1)c1ccccc1Cl" to recorded hERG current change (%, negative = inhibition) at 10uM (system: human ether-à-go-go-related gene (hERG) potassium channel (human, UniProt Q12809))
11.8

Give recorded hERG current change (%, negative = inhibition) at 10uM with human ether-à-go-go-related gene (hERG) potassium channel (human, UniProt Q12809) for the following compound: CSc1ccccc1C(=O)N1CCCC(CNC(=O)c2ccc(F)cc2)C1 (stereo not shown)
15.3

Lab note: need hERG current change (%, negative = inhibition) at 10uM for "CCN(C(=O)COC(=O)/C=C/c1ccco1)c1c(N)n(Cc2ccccc2)c(=O)[nH]c1=O" on human ether-à-go-go-related gene (hERG) potassium channel (human, UniProt Q12809), anyone have it?
-1.01

Record "O=C1c2ccccc2C(=O)N1CCCn1c(=O)oc2ccccc21" : what is its hERG current change (%, negative = inhibition) at 10uM with human ether-à-go-go-related gene (hERG) potassium channel (human, UniProt Q12809)?
11.4

Fill in the recorded hERG current change (%, negative = inhibition) at 10uM for this compound, with human ether-à-go-go-related gene (hERG) potassium channel (human, UniProt Q12809) as test system: CSc1cccc(CN2CCCC(CNC(=O)c3ccc(F)cc3)C2)c1 (stereo not shown)
-74.1

Please tell me: hERG current change (%, negative = inhibition) at 10uM of CCCn1cc(CN2CCCC(CNC(=O)c3ccc(F)cc3)C2)c(C)n1 (stereo not shown) , system human ether-à-go-go-related gene (hERG) potassium channel (human, UniProt Q12809)?
-25.5

Checklist item: hERG current change (%, negative = inhibition) at 10uM tested on human ether-à-go-go-related gene (hERG) potassium channel (human, UniProt Q12809), entry Cn1c(=NCC(O)COc2ccccc2)sc2ccccc21 (stereo not shown) , value?
-42.7

Requested read-out hERG current change (%, negative = inhibition) at 10uM, target or system human ether-à-go-go-related gene (hERG) potassium channel (human, UniProt Q12809), entry "N#C/C(=C\c1ccc(-c2nc3ccccc3s2)o1)C(N)=O"
5.03

---

target: human ether-à-go-go-related gene (hERG) potassium channel (human, UniProt Q12809); assay: primary screen, population patch clamp on CHO cells stably expressing hERG; higher = less effect of the substance
About 14,000 (4.5%) of roughly 310,000 compounds showed an effect of 50% or more. Effects have a minus sign here. Only a selection was taken, and strong results are over-represented in it overall.
MEASURED_PROPERTY: hERG current change (%, negative = inhibition) at 10uM (%)
Please give a number only; it is taken to be in %.

Recall the recorded hERG current change (%, negative = inhibition) at 10uM for "O=C(CNC(=O)CNC(=O)c1ccc(Cl)cc1Cl)NCc1cccc(Cl)c1" with human ether-à-go-go-related gene (hERG) potassium channel (human, UniProt Q12809) and state it.
-1.95

Enter reported hERG current change (%, negative = inhibition) at 10uM observed with human ether-à-go-go-related gene (hERG) potassium channel (human, UniProt Q12809) for "CCOC(=O)C1(Cc2ccccc2C(F)(F)F)CCN(C2CCN(C(C)C)CC2)CC1"
-36.6

Can you look up hERG current change (%, negative = inhibition) at 10uM on human ether-à-go-go-related gene (hERG) potassium channel (human, UniProt Q12809) for "CCOC(=O)C1(Cc2ccccc2C(F)(F)F)CCN(CCCn2cccn2)CC1" ?
-82.1

Item Cl.N#CC(c1ccccc1)C1CCN(Cc2ccccc2)CC1 (stereo not shown) with human ether-à-go-go-related gene (hERG) potassium channel (human, UniProt Q12809) - hERG current change (%, negative = inhibition) at 10uM?
-50.9

Request - read-out hERG current change (%, negative = inhibition) at 10uM | tested on human ether-à-go-go-related gene (hERG) potassium channel (human, UniProt Q12809) | molecule O=C(Nc1cc(S(=O)(=O)N2CCOCC2)ccc1N1CCOCC1)C1CCCO1 (stereo not shown);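 also: peak tail current of the secondary pulse compared with the same well before compound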
-3.99

Could you share what hERG current change (%, negative = inhibition) at 10uM was measured for "CCOC(=O)C1(Cc2ccccc2C(F)(F)F)CCN(C(=O)c2cc(C(C)=O)n[nH]2)CC1" , tested on human ether-à-go-go-related gene (hERG) potassium channel (human, UniProt Q12809)?;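 also: peak tail current of the secondary pulse compared with the same well before compound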
-57.2

API: value(readout=hERG current change (%, negative = inhibition) at 10uM, system=human ether-à-go-go-related gene (hERG) potassium channel (human, UniProt Q12809)) for record "COc1ccc2nc(NC(=S)NC(=O)c3ccco3)sc2c1"
25.2

Short answer please: hERG current change (%, negative = inhibition) at 10uM, human ether-à-go-go-related gene (hERG) potassium channel (human, UniProt Q12809), entry "CCOC(=O)C1(Cc2ccccc2C(F)(F)F)CCN(C2CCN(C(C)=O)CC2)CC1"
-18.6

# query: hERG current change (%, negative = inhibition) at 10uM | item "C=CCNC(=O)c1ccc(Cl)cc1Cl" | system: human ether-à-go-go-related gene (hERG) potassium channel (human, UniProt Q12809);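 also: peak tail current of the secondary pulse compared with the same well before compound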
11.8

Param readout = hERG current change (%, negative = inhibition) at 10uM; param system = human ether-à-go-go-related gene (hERG) potassium channel (human, UniProt Q12809); param query = "COc1ccc(N2CCN(CC(=O)Nc3c(C)cc(C)cc3C)CC2)cc1" ; response: value;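 also: peak tail current of the secondary pulse compared with the same well before compound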
0.738
